All values here come from the supplement of paper PMC10567573.

B1: BRF1 (parent)
chain: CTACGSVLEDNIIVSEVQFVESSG

# Variants of: B1
# assayExplanation: protein stability index of a GFP-peptide fusion (GPS, HEK-293T) (PSI 1-6); higher = more stable;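 further: lentivirally expressed fusions sorted by FACS into six bins by GFP to DsRed ratio, PSI derived from sequencing read proportions per bin multiplied by bin number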
# measurementConditions: c terminus: a fixed tail appended
As shown below, each of these variants has a reported protein stability index value.
reportedMetric: protein stability index

{"mutantName": "E16M", "reportedMetric": "protein stability index", "resultNumber": 3.11}
{"mutantName": "A3W", "reportedMetric": "protein stability index", "resultNumber": 3.08}
{"mutantName": "I12Q", "reportedMetric": "protein stability index", "resultNumber": 4.35}
{"mutantName": "T2P", "reportedMetric": "protein stability index", "resultNumber": 2.72}
{"mutantName": "S22A", "reportedMetric": "protein stability index", "resultNumber": 3.73}
{"mutantName": "G5S", "reportedMetric": "protein stability index", "resultNumber": 3.17}
{"mutantName": "I13Q", "reportedMetric": "protein stability index", "resultNumber": 4.01}
{"mutantName": "D10S", "reportedMetric": "protein stability index", "resultNumber": 1.34}
{"mutantName": "C4I", "reportedMetric": "protein stability index", "resultNumber": 3.35}
{"mutantName": "V14Y", "reportedMetric": "protein stability index", "resultNumber": 2.73}
{"mutantName": "V17L", "reportedMetric": "protein stability index", "resultNumber": 2.29}
